biological target: sites opioides de type µ (Oryctolagus cuniculus, UniProt G1TAQ8); construct: fraction membranaire brute obtenue à partir de tissu frais (cervelet de lapin, cervelet de cobaye); from tissue; host or cells: rabbit cerebellum (New Zealand rabbits), crude membrane fraction; assay: [3H]diprenorphine competition binding, crude membrane fraction of rabbit cerebellum; design: species or system lapin; settings: calculated from the measured CI.50; rabbit cerebellum membranes; read-out: KIµ (constante de dissociation apparente du composé testé)
Sequence (G1TAQ8 1-401): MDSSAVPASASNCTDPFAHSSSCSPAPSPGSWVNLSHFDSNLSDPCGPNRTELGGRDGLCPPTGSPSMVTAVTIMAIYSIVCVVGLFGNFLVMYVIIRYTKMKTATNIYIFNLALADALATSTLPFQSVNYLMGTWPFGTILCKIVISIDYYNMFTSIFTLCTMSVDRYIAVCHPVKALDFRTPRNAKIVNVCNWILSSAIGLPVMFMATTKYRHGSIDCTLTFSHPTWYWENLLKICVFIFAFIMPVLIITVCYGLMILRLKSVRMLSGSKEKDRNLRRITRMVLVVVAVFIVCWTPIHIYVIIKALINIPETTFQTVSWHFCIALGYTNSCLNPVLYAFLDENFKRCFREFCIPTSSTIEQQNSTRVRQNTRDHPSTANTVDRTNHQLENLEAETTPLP
pKi: −log10 of the molar value.
Classify by measured pKi: yes (1) if it is equal to or exceeds 7, no (0) if it is smaller.

Previously resolved entries follow.
Dear colleague, could you confirm whether O=C1CC[C@@]2(O)[C@H]3Cc4ccc(OP(=O)(O)OP(=O)(O)OP(=O)(O)O)c5c4[C@@]2(CCN3CC2CC2)[C@H]1O5 [naltrexone-3-triphosphate] has pKi at or above 7? yes (1)

Has C=CCN1CC[C@]23c4c5ccc(OP(=O)(O)O)c4O[C@H]2C(=O)CC[C@@]3(O)[C@H]1C5 [naloxone-3-phosphate] a recorded pKi greater than or equal to 7? yes (1)

Item COP(=O)(O)Oc1ccc2c3c1O[C@H]1C(=O)CC[C@@]4(O)[C@@H](C2)N(CC2CC2)CC[C@]314 [naltrexone-3-phosphate(OMe)] with pKi of 7 or above? yes (1)

Textbook exercise: given the entry C=CCN1CC[C@]23c4c5ccc(OS(=O)(=O)O)c4O[C@H]2C(=O)CC[C@@]3(OS(=O)(=O)O)[C@H]1C5 [naloxone-3,14-disulfate] , state whether its pKi is greater than or equal to 7. no (0)

Is it the case that C=CCN1CC[C@]23c4c5ccc(OS(=O)(=O)O)c4O[C@H]2C(=O)CC[C@@]3(O)[C@H]1C5 [naloxone-3-sulfate] has pKi reaching or exceeding 7? no (0)

---
Can O=C1CC[C@@]2(O)[C@H]3Cc4ccc(OS(=O)(=O)O)c5c4[C@@]2(CCN3CC2CC2)[C@H]1O5 [naltrexone-3-sulfate] be said to have pKi at or above 7? no (0)

Is pKi for C=CCN1CC[C@]23c4c5ccc(OP(=O)(O)OC)c4O[C@H]2C(=O)CC[C@@]3(O)[C@H]1C5 [naloxone-3-phosphate(OMe)] at or above 7? no (0)
